Numbers sourced from paper PMC10649961.

# System: Hep G2
# run_conditions: calculated relative to the cell line Chang liver (b)
Could you please mark Satisfied for values of selectivity index (SI) below 2 and Not satisfied for values at or above it?

smiles: CCCCCCCC[P+](c1ccccc1)(N(CC)CC)N(CC)CC
assigned_class: Satisfied
//
smiles: CCCCCCCCCC[P+](N(CC)CC)(N(CC)CC)N(CC)CC
assigned_class: Not satisfied
//
smiles: CCCCCCCCC[P+](c1ccccc1)(N(CC)CC)N(CC)CC
assigned_class: Satisfied
//
smiles: CCCCCCCCCCCCCC[P+](N(CC)CC)(N(CC)CC)N(CC)CC
assigned_class: Satisfied
//
smiles: CCCCCCCCCC[P+](c1ccccc1)(N(CC)CC)N(CC)CC
assigned_class: Satisfied
//
smiles: CCCCCCCC[P+](N(CC)CC)(N(CC)CC)N(CC)CC
assigned_class: Satisfied

====

# System: PC3
# test_protocol: cells
# run_conditions: Homo sapiens, PC-3, 48 h, read-out: Cytotoxic Effects (IC50), PC3, MTT assay, 48 h
pIC50: −log10 of the molar value.
measure: pIC50

molecule: CCCCCCCCCC[P+](c1ccccc1)(N(CC)CC)N(CC)CC [5d]
measured_value: 6.10
//
molecule: CCCCCCCC[P+](c1ccccc1)(N(CC)CC)N(CC)CC [5b]
measured_value: 4.94
//
molecule: CCCCCCCC[P+](N(CC)CC)(N(CC)CC)N(CC)CC [4b]
measured_value: 4.94
//
molecule: CCCCCCCC[P+](c1ccccc1)(c1ccccc1)c1ccccc1 [compound 8, Octyltriphenylphosphonium iodide, reference compound]
measured_value: 6.40
//
molecule: CCCCCCCCCC[P+](c1ccccc1)(c1ccccc1)N(CC)CC [6d]
measured_value: 5.85
//
molecule: CCCCCCCC[N+](CC)(CC)CC [compound 7, Triethyloctylammonium iodide, reference compound]
measured_value: 4.49
//
molecule: CCCCCCCCC[P+](c1ccccc1)(c1ccccc1)N(CC)CC [6c]
measured_value: 6.00
//
molecule: CCCCCCCCC[P+](N(CC)CC)(N(CC)CC)N(CC)CC [4c]
measured_value: 5.74
//
molecule: CCCCCCCCCC[P+](N(CC)CC)(N(CC)CC)N(CC)CC [4d]
measured_value: 5.14

====

# Test system: PC3
# test_protocol: cells
# run_conditions: Homo sapiens, PC-3, 48 h, read-out: Cytotoxic Effects (IC50), PC3, MTT assay, 48 h
Quick reference: IC50 of the listed items.
measure: IC50 (µM)

smiles: CCCCCC[P+](c1ccccc1)(N(CC)CC)N(CC)CC
assayed_target: PC3
measure: IC50
units_label: µM
measured_value: 4.9
//
smiles: CCCCCC[P+](N(CC)CC)(N(CC)CC)N(CC)CC
assayed_target: PC3
measure: IC50
units_label: µM
measured_value: 44
//
smiles: CCCCCCCCCCCCCC[P+](c1ccccc1)(c1ccccc1)N(CC)CC
assayed_target: PC3
measure: IC50
units_label: µM
measured_value: 1.5
//
smiles: CCCCCCCCCCCCCC[P+](N(CC)CC)(N(CC)CC)N(CC)CC
assayed_target: PC3
measure: IC50
units_label: µM
measured_value: 1.7
//
smiles: CCN(CC)[P+](CCCCCC[P+](N(CC)CC)(N(CC)CC)N(CC)CC)(N(CC)CC)N(CC)CC
assayed_target: PC3
measure: IC50
units_label: µM
measured_value: 34.9
//
smiles: CCCCCCCCC[P+](c1ccccc1)(N(CC)CC)N(CC)CC
assayed_target: PC3
measure: IC50
units_label: µM
measured_value: 10
//
smiles: CCCCCC[P+](c1ccccc1)(c1ccccc1)N(CC)CC
assayed_target: PC3
measure: IC50
units_label: µM
measured_value: 4

====

# Tested on: Staphylococcus aureus ATCC 6538 P FDA 209P
# note: exactly 8 µM is not below, so it is no (0); use yes (1) for MIC strictly under it

compound: CCCCCCCCCCCCCC[P+](c1ccccc1)(c1ccccc1)N(CC)CC [6e]
assigned_class: yes (1)
//
compound: CCCCCCCCCC[P+](c1ccccc1)(c1ccccc1)N(CC)CC [6d]
assigned_class: yes (1)
//
compound: CCCCCC[P+](c1ccccc1)(c1ccccc1)N(CC)CC [6a]
assigned_class: no (0)
//
compound: CCCCCCCCC[P+](c1ccccc1)(c1ccccc1)N(CC)CC [6c]
assigned_class: yes (1)
//
compound: CCCCCCCCCC[P+](N(CC)CC)(N(CC)CC)N(CC)CC [4d]
assigned_class: yes (1)
//
compound: CCCCCCCCC[P+](c1ccccc1)(N(CC)CC)N(CC)CC [5c]
assigned_class: yes (1)
//
compound: CCCCCCCC[P+](N(CC)CC)(N(CC)CC)N(CC)CC [4b]
assigned_class: no (0)
//
compound: CCCCCC[P+](N(CC)CC)(N(CC)CC)N(CC)CC [4a]
assigned_class: no (0)

====

For MRSA-2, measured log10 of MIC is reported for the entries below.
measure: log10 of MIC (log10 of the value in µM)

compound: CCCCCCCCC[P+](N(CC)CC)(N(CC)CC)N(CC)CC [4c]
log10 of MIC: 0.89
--
compound: CCCCCCCCCCCCCC[P+](N(CC)CC)(N(CC)CC)N(CC)CC [4e]
log10 of MIC: -0.60
--
compound: CCCCCCCCC[P+](c1ccccc1)(N(CC)CC)N(CC)CC [5c]
log10 of MIC: 0.59
--
compound: CCCCCCCC[P+](c1ccccc1)(c1ccccc1)c1ccccc1 [compound 8, Octyltriphenylphosphonium iodide, reference compound]
log10 of MIC: 0.59
--
compound: CCCCCCCC[P+](N(CC)CC)(N(CC)CC)N(CC)CC [4b]
log10 of MIC: 1.19
--
compound: CCCCCCCCCC[P+](N(CC)CC)(N(CC)CC)N(CC)CC [4d]
log10 of MIC: 0.28
--
compound: CCCCCCCCCC[P+](c1ccccc1)(N(CC)CC)N(CC)CC [5d]
log10 of MIC: -0.05
--
compound: CCCCCC[P+](N(CC)CC)(N(CC)CC)N(CC)CC [4a]
log10 of MIC: 2.10

====

# Test system: HuTu 80
# test_protocol: cells
# run_conditions: Homo sapiens, HuTu80, 48 h, read-out: Cytotoxic Effects (IC50)
pIC50: −log10 of the molar value.
As shown below, each of these compounds has a reported pIC50 value.

compound: COc1cccc2c1C(=O)c1c(O)c3c(c(O)c1C2=O)C[C@@](O)(C(=O)CO)C[C@@H]3O[C@H]1C[C@H](N)[C@H](O)[C@H](C)O1 [doxorubicin, reference compound]
pIC50: 6.70
--
compound: CCCCCCCCCC[P+](N(CC)CC)(N(CC)CC)N(CC)CC
pIC50: 5.55
--
compound: CCN(CC)[P+](CCCCCC[P+](N(CC)CC)(N(CC)CC)N(CC)CC)(N(CC)CC)N(CC)CC
pIC50: 4.88
--
compound: CCCCCCCCC[P+](c1ccccc1)(N(CC)CC)N(CC)CC
pIC50: 5.55
--
compound: CCCCCC[P+](N(CC)CC)(N(CC)CC)N(CC)CC
pIC50: 4.94
--
compound: CCCCCCCCCCCCCC[P+](N(CC)CC)(N(CC)CC)N(CC)CC
pIC50: 7.22
--
compound: CCCCCCCCCCCCCC[P+](c1ccccc1)(c1ccccc1)N(CC)CC
pIC50: 7.15
--
compound: CCCCCCCC[P+](c1ccccc1)(c1ccccc1)N(CC)CC
pIC50: 6.70
--
compound: CCCCCCCCC[P+](N(CC)CC)(N(CC)CC)N(CC)CC
pIC50: 5.59
--
compound: CCCCCCCC[P+](c1ccccc1)(N(CC)CC)N(CC)CC
pIC50: 5.40
--
compound: CCCCCCCCC[P+](c1ccccc1)(c1ccccc1)N(CC)CC
pIC50: 6.70
--
compound: CCCCCCCCCC[P+](c1ccccc1)(N(CC)CC)N(CC)CC
pIC50: 5.60
--
compound: CCCCCCCC[P+](c1ccccc1)(c1ccccc1)c1ccccc1 [compound 8, Octyltriphenylphosphonium iodide, reference compound]
pIC50: 7.05

====

The molecules listed here are annotated with their selectivity index (SI).
# System: A549
# run_conditions: calculated relative to the cell line WI38 (a)

molecule: CCCCCCCC[P+](c1ccccc1)(c1ccccc1)N(CC)CC
selectivity index (SI): 1.2
--
molecule: CCCCCCCCCCCCCC[P+](c1ccccc1)(c1ccccc1)N(CC)CC
selectivity index (SI): 1.3
--
molecule: CCCCCCCC[P+](c1ccccc1)(c1ccccc1)c1ccccc1 [compound 8, Octyltriphenylphosphonium iodide, reference compound]
selectivity index (SI): 1.1
--
molecule: CCCCCC[P+](c1ccccc1)(N(CC)CC)N(CC)CC
selectivity index (SI): 3.7

====

# test_protocol: In vivo acute toxicity, single intraperitoneal injection
# Set-up: species or system mice
# run_conditions: male, CD-1, mouse, in vivo, ip, male CD-1 mice, single intraperitoneal administration, 14 days, Probit analysis
Below: a set of entries, each annotated with reported LD50 at 14 days.

smiles: CCCCCCCC[P+](c1ccccc1)(N(CC)CC)N(CC)CC
LD50 at 14 days [mg/kg]: 27.9
--
smiles: CCCCCCCC[P+](c1ccccc1)(c1ccccc1)N(CC)CC
LD50 at 14 days [mg/kg]: 102
--
smiles: CCCCCCCCCC[P+](N(CC)CC)(N(CC)CC)N(CC)CC
LD50 at 14 days [mg/kg]: 6.9
